Reference source: PubChem BioAssay

Test: blockers of RIG-like receptor reporter activation – cell-based, Sendai virus stimulus, luciferase, 10K MLSCN set, TLR/RLR signaling modifier project, primary screen (AID 602276);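 further: firefly luciferase from ISG56 promoter only with Renilla not read in this screen; 0% = Sendai virus plus DMSO and 100% = medium plus DMSO without virus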
Settings: HEK293 RL24 IRF3 luciferase reporter, at 10 µM, hits give high values
Measured quantity: inhibition (%)

- COc1ccc(OC)c(NC(=O)C23CCC(C)(C(=O)C2)C3(C)C)c1 (stereo unspecified): 12.9
- Cc1cc(NC(=O)CCC(=O)N(CC2CCCO2)C(C(=O)NC2CCCC2)c2ccccc2C)no1 (stereo unspecified): 20.9
- O=C(NCc1ccco1)C1CCN(S(=O)(=O)N2CCC3(CC2)OCCO3)CC1: 0.326
- COc1ccc(-c2c3c(=O)n(C)c(=O)n(C)c3cn2-c2cccc(OC)c2)cc1: -0.838
- CCOC(=O)C1CCN(C(=O)CN(c2ccc(Cl)c(C(F)(F)F)c2)S(C)(=O)=O)CC1: 11.7
- CCOc1ccc2c(O)csc2c1: 8.13
- CCC(=O)Nc1cccc(Br)c1: -18.4
- COc1cc(CO)cc(-c2cc(CO)cc(OC)c2OC)c1OC: 11.3
- COCCNC(=O)C(c1ccc(C)o1)N(C(=O)c1snc(C(N)=O)c1N)c1ccc(C)cc1 (stereo unspecified): 12.5
- CCCc1cc(=O)n2[nH]c(-c3ccc(Br)cc3)cc2n1: -22.4
- COC(=O)c1ccc(COC(=O)c2c(C)nn(Cc3ccccc3Cl)c2Cl)o1: 17.9
- O=C(O)C1CCCCC1C(=O)Nc1ccccn1 (stereo unspecified): 7.72
- CCOc1ccccc1N1C(=O)c2ccc(C(=O)Nc3cccnc3)cc2C1=O: 11.8
- O=C(Nc1ccccc1)c1cccc(N2CCCC2=O)c1: -43.5
- Cc1ccc(S(=O)(=O)N2CCCN(S(=O)(=O)C3CCS(=O)(=O)C3)CC2)cc1 (stereo unspecified): 12.7
- Cc1cc(C(=O)N2CCCc3ccccc32)no1: -8.74
- COc1ccc(C2=NOC(C(=O)NCc3ccc(F)cc3)C2)cc1OC (stereo unspecified): 22.8
- CC(C)N(Cc1nc(-c2ccccc2)no1)C(=O)CCCN1C(=O)c2ccccc2C1=O: 4.76
- COc1ccccc1CCNC(=O)C1CCCO1 (stereo unspecified): 0.904
- O=C(Nc1nc(-c2ccccc2)cs1)C1CCCCN1S(=O)(=O)c1ccccc1 (stereo unspecified): -0.318
- O=C(c1csc2ccccc12)N1CCCCCC1: 7.71
- CCOC(=O)c1c(N)nn(C(=O)C(C)C)c1-c1ccccc1: -23.8
- CC(=O)NC1CC2CCCC(C1)N2CC(=O)Nc1ccccc1 (stereo unspecified): -13.6
- O=C(C1CCCO1)N1CCc2ccccc21 (stereo unspecified): 9.45
- COc1ccc(Cc2nc(-c3ccc(Br)cc3)no2)cc1: -28.1
- COc1ccc(OC)c(C2=NOC(C(=O)Nc3cc(C)nn3-c3ccccc3)C2)c1 (stereo unspecified): 7.53
- Cc1ccc(Cn2c(C(=O)NCCCN3CCOCC3)cc3sccc32)cc1: 14.1
- COc1cccc(NC(=O)N(CCCN2CCOCC2)C(C)c2cc3cccc(OC)c3o2)c1 (stereo unspecified): 16.5
- COC(=O)c1c(NC(=O)CCc2ccc(C)o2)sc(C)c1C: 15.7
- O=P(CCNCc1ccco1)(c1ccccc1)c1ccccc1: 139
- CS(=O)(=O)N(CC(=O)N1CCCCCC1)c1ccc(Br)cc1: 15.8
- COc1ccc(C(=O)N2CCN(C3CCCCC3)CC2)c(OC)c1: 1
- O=C(CCCC(=O)N(CC(=O)NC1CCCCC1)Cc1ccc2c(c1)OCO2)Nc1ccccn1: 15.4
- CCCCn1c(SCc2ccc(Cl)cc2)nc2c1c(=O)[nH]c(=O)n2C: 10.9
- COc1ccccc1N1CCN(C(=O)CSc2nc3ncnc(N)c3[nH]2)CC1: 16
- Cc1ncc(CO)c2c1OC(C)(C)OC2: 8.62
- Cc1ccc2ncnc(NCCCN3CCOCC3)c2c1: -18.7
- O=C(NCCSc1c[nH]c2ccccc12)c1ccco1: 10.1
- CCOC(=O)c1ccc(NC(=O)CSc2nnc(COc3ccccc3)n2C)cc1: -1.67
- O=C1CC(c2ccsc2)c2cc3c(cc2N1)OCCO3 (stereo unspecified): 1.12
- CCCN(CCC)C(=O)C1CCN(c2cc(C)nc3c(-c4ccc(OC)c(OC)c4)c(C)nn23)CC1: 4.7
- Cc1cccc(C(=O)O)c1NC(=O)c1ccc(F)cc1: -3.9
- CC(=O)Nc1cc(NC(C)=O)cc(C(=O)OCC(=O)N2CC(C)OC(C)C2)c1 (stereo unspecified): 6
- CCOC(=O)N1CCN(c2nc(-c3ccc(Cl)cc3)cs2)CC1: -3.5
- CC(C)N(O)C(=O)NC(C)(C)C: 17.4
- O=C(c1cn(-c2ccccc2)nc1-c1cccs1)N1CCN(c2ccccn2)CC1: 6.18
